Entry source: patent US6552196B2

System: Staphylococcus aureus 256E
assayText: In vitro antibacterial activity against resistant strains (MIC)
Type: cell-based
settings: resistant strain Staphylococcus aureus 256E; 2-fold agar dilution; methicillin resistant strains 48 hours at 30° C.; read-out: minimum inhibitory concentration (MIC)
Decision: MIC beneath 0.03 µg/mL gives rule met; MIC meeting or exceeding 0.03 µg/mL gives rule not met.

**Q:** Problem: For the molecule CON=C1CN(c2c(F)c(N)c3c(=O)c(C(=O)O)cn(C4CC4)c3c2F)CC12CN(C)C2 , is MIC under 0.03 µg/mL?
**A:** rule met

**Q:** Problem: For the molecule O=C(O)c1cn(C2CC2)c2cc(N3CCNCC3)c(F)cc2c1=O [Ciprofloxacin, ciprofloxacin, reference compound] , is MIC under 0.03 µg/mL?
**A:** rule not met

**Q:** Problem: For the molecule CON=C1CN(c2nc3c(cc2F)c(=O)c(C(=O)O)cn3C2CC2)CC12CNC2.CS(=O)(=O)O , is MIC under 0.03 µg/mL?
**A:** rule met

**Q:** Problem: For the molecule C[C@@H]1CN(c2c(F)c(N)c3c(=O)c(C(=O)O)cn(C4CC4)c3c2F)C[C@H](C)N1 [Sparfloxacin, sparfloxacin, reference compound] , is MIC under 0.03 µg/mL?
**A:** rule not met

**Q:** Problem: For the molecule CCON=C1CN(c2c(F)c(N)c3c(=O)c(C(=O)O)cn(C4CC4)c3c2F)CC12CNC2.CS(=O)(=O)O , is MIC under 0.03 µg/mL?
**A:** rule met

###

Test system: Pseudomonas aeruginosa 1592E
assayText: In vitro antibacterial activity (MIC), agar dilution
Format: cell-based
settings: 2-fold agar dilution, Muller-Hinton agar, 18 hours at 37° C., read-out: minimum inhibitory concentration (MIC)
Protocol: 10^7 cfu/ml of bacteria were inoculated and cultured for 18 hours at 37° C. and then the antibacterial activities were measured. For the methicillin resistant strains the activities were measured after 48 hours of cultivation at 30° C. Hoechst Standard strains were used for the testings.
resultType: MIC (µg/mL)
Give your result in µg/mL as a bare value.

**Q:** Looking for the measured MIC of CON=C1CN(c2cc3c(cc2F)c(=O)c(C(=O)O)cn3-c2ccc(F)cc2F)CC12CNC2.CS(=O)(=O)O.CS(=O)(=O)O [Example 6] , can you help?
**A:** 1.56

**Q:** Looking for the measured MIC of CCON=C1CN(c2c(F)c(N)c3c(=O)c(C(=O)O)cn(C4CC4)c3c2F)CC12CNC2.CS(=O)(=O)O [Example 9] , can you help?
**A:** 0.781

**Q:** Looking for the measured MIC of CON=C1CN(c2nc3c(cc2F)c(=O)c(C(=O)O)cn3C2CC2)CC12CNC2.CS(=O)(=O)O [Example 1] , can you help?
**A:** 0.391

**Q:** Looking for the measured MIC of C[C@@H]1CN(c2c(F)c(N)c3c(=O)c(C(=O)O)cn(C4CC4)c3c2F)C[C@H](C)N1 [Sparfloxacin, sparfloxacin, reference compound] , can you help?
**A:** 0.781

###

I'd be grateful if you could share measured MIC for these entries.
Give your result in ng/mL as a bare value.

**Q:** Tell me reported MIC for CCON=C1CN(c2nc3c(cc2F)c(=O)c(C(=O)O)cn3C2CC2)CC12CNC2.CS(=O)(=O)O , tested with Klebsiella oxytoca 1082E.
**A:** 4

**Q:** Tell me reported MIC for CON=C1CN(c2cc3c(cc2F)c(=O)c(C(=O)O)cn3C2CC2)CC12CNC2.CS(=O)(=O)O , tested with Klebsiella oxytoca 1082E.
**A:** 7
